# method: self-splicing fitness, log relative to wild type (ln ratio); higher = more splicing; Tetrahymena group I intron in knt gene, E. coli kanamycin selection, DiMSum; sequences stand for … in CUCUCU…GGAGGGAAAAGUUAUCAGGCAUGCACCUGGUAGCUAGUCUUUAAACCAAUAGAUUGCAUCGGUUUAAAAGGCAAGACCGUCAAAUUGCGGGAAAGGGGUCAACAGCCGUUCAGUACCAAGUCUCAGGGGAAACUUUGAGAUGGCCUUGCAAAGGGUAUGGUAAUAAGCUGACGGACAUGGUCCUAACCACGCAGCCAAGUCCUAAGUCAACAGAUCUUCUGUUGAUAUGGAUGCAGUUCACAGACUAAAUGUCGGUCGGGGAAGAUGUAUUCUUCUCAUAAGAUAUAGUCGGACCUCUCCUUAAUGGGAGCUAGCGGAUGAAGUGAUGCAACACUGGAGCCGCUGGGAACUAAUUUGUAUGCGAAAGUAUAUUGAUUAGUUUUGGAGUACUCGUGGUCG;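 also: selection with 25 µg/mL kanamycin versus none on LB agar overnight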
# run_conditions: 37 °C
Binning of self-splicing fitness (ln) into classes: low = under -2, medium = from -2 up to -0.7, high = -0.7 and over

Task: State the class of the sequence shown: CUGGAGCAAUAUUACGGACU
Result: low

Task: State the class of the sequence shown: CGUCAGCAAUAUUACGUAAG
Result: high

Task: State the class of the sequence shown: GAAUAGCAAUAUUACGCACA
Result: high

Task: State the class of the sequence shown: GGACAGCAAUAUUACGGCAA
Result: high

Task: State the class of the sequence shown: ACCAAGCAAUAUUACGAAGA
Result: medium

Task: State the class of the sequence shown: AGCGAGCAAUAUUACGCGAA
Result: medium

Task: State the class of the sequence shown: UUGGAGCAAUAUUACGACAG
Result: medium

Task: State the class of the sequence shown: GUAAAGCAAUAUUACGGUUA
Result: high

Task: State the class of the sequence shown: AAGGAGCAAUAUUACGGGUU
Result: low

Task: State the class of the sequence shown: ACGAAGCAAUAUUACGCAGG
Result: medium

Task: State the class of the sequence shown: UCUAAGCAAUAUUACGCUAG
Result: low

Task: State the class of the sequence shown: CAUAAGCAAUAUUACGGUCG
Result: high

Task: State the class of the sequence shown: AGCCAGCAAUAUUACGCAUU
Result: medium

Task: State the class of the sequence shown: UGGCAGCAAUAUUACGCGGA
Result: medium

Task: State the class of the sequence shown: CCGGAGCAAUAUUACGAGCU
Result: medium

Task: State the class of the sequence shown: CAUUAGCAAUAUUACGAUCC
Result: high

Task: State the class of the sequence shown: GACGAGCAAUAUUACGAACA
Result: medium

Task: State the class of the sequence shown: UCGCAGCAAUAUUACGGCAG
Result: high

Task: State the class of the sequence shown: GCGUAGCAAUAUUACGCGUG
Result: low

Task: State the class of the sequence shown: CCUUAGCAAUAUUACGCUCA
Result: medium

Task: State the class of the sequence shown: GAGUAGCAAUAUUACGCUCG
Result: high

Task: State the class of the sequence shown: AUCAAGCAAUAUUACGGGUG
Result: high

Task: State the class of the sequence shown: UCUCAGCAAUAUUACGAACG
Result: high

Task: State the class of the sequence shown: CACGAGCAAUAUUACGUGGU
Result: low

Task: State the class of the sequence shown: UCGAAGCAAUAUUACGUUUU
Result: low

Task: State the class of the sequence shown: ACGCAGCAAUAUUACGGCGG
Result: medium

Task: State the class of the sequence shown: AUACAGCAAUAUUACGUCUU
Result: high

Task: State the class of the sequence shown: CUACAGCAAUAUUACGCGUU
Result: low

Task: State the class of the sequence shown: UUUCAGCAAUAUUACGGUCC
Result: high

Task: State the class of the sequence shown: UCGUAGCAAUAUUACGAACA
Result: medium

Task: State the class of the sequence shown: UAUAAGCAAUAUUACGCACC
Result: medium
